Data provenance: patent US20260069689A1

- Study Target: SARS-COV-2 RBD extracellular domain expressed with a C-terminal myc-myc-hexahistidine tag (SARS-COV-2 RBD-mmH) (SARS-CoV-2)
- Experimental Protocol: SPR Biacore, mAb captured on anti-hFc, RBD-mmH analyte, 37 C
pKd: −log10 of the molar value.
Overview of recorded pKd for various binders
Readout Label: pKd

binder="mAb14283 (antibody, V domains shown) VH: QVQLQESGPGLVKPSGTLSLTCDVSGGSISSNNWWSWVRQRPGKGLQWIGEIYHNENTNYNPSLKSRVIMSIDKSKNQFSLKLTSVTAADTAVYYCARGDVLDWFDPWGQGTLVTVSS VL: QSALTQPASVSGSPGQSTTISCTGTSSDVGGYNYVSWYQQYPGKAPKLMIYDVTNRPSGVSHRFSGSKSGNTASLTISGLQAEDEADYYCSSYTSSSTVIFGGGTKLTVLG" number=8.93
binder="mAb14289 (antibody, V domains shown) VH: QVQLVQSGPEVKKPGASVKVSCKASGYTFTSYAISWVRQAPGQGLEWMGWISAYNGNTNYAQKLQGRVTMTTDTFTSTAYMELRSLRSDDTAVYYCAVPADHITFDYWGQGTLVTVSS VL: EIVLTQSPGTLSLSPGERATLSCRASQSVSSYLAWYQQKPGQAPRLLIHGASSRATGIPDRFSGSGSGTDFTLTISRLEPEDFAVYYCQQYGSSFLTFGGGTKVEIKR" number=8.84
binder="mAb14282 (antibody, V domains shown) VH: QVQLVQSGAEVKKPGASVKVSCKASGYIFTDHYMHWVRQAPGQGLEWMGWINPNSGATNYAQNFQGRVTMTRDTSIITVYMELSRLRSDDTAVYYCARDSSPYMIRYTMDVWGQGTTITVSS VL: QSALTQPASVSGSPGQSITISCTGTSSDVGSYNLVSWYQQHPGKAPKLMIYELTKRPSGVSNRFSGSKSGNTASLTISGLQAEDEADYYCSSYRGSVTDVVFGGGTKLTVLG" number=8.27
